Each recorded value in this set is attributed to patent US5486541A.

# Target or test system: MAO-A (Rattus norvegicus, UniProt P21396)
# Sequence (P21396 1-526): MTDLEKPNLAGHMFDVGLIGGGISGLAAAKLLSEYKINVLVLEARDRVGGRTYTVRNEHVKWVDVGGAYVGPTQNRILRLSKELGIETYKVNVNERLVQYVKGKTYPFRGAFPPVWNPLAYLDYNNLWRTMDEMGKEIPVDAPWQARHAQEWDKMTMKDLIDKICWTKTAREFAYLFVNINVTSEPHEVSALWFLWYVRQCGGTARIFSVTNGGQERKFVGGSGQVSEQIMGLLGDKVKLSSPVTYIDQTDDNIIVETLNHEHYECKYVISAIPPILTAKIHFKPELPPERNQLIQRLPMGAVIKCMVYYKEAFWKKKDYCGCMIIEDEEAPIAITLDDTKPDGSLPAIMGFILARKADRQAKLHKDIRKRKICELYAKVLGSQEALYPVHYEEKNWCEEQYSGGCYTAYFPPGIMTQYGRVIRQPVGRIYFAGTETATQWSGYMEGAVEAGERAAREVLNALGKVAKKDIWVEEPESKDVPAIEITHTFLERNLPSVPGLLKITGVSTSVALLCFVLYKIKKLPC
Attribute measured: IC50 (µM)
// units = µM; emit number, no label

Compound	Unit label	IC50
C#CCNC1CCc2cc(F)ccc21.Cl (single isomer, unassigned; (+)) [(+)-5-F, hydrochloride]	µM	0.14

Lookup: Supply recorded IC50 for C#CCNC1CCc2ccc(F)cc21.Cl (single isomer, unassigned; (+)) [(+)-6-F, hydrochloride] here.
Found: 2.8

Lookup: Please give measured IC50 of the following entry: C#CCNC1CCc2ccc(F)cc21.Cl (single isomer, unassigned; (-)) [(-)-6-F, hydrochloride]
Found: 40

Lookup: Give recorded IC50. C#CCNC1CCc2c(F)cccc21.Cl (single isomer, unassigned; (+)) [(+)-4-F, hydrochloride]
Found: 0.34

====

# Target or test system: MAO-B (Rattus norvegicus)
# Measurement protocol: biochemical
# Type: biochemical
# Setup conditions: ratio IC50 MAO-A / IC50 MAO-B, rat brain homogenate
Measured Selectivity MAO-A/MAO-B (in vitro IC50) accompanies every entry in the list below.
Could you respond with only the numeric value?

Molecule	Attribute measured	Val
C#CCNC1CCc2ccc(Cl)cc21.Cl (stereo not shown)	Selectivity MAO-A/MAO-B (in vitro IC50)	896
C#CCNC1CCc2c(F)cc(F)cc21 (single isomer, unassigned; (+)) [(+)-4,6-Difluoro]	Selectivity MAO-A/MAO-B (in vitro IC50)	2
C#CCNC1CCc2cc(F)ccc21.Cl (stereo not shown) [Example 5-F]	Selectivity MAO-A/MAO-B (in vitro IC50)	116
C#CCNC1CCc2c(F)cccc21.Cl (stereo not shown) [Example 4-F]	Selectivity MAO-A/MAO-B (in vitro IC50)	86
C#CCNC1CCc2ccc(F)cc21 (stereo not shown)	Selectivity MAO-A/MAO-B (in vitro IC50)	645
C#CCNC1CCc2cc(F)ccc21.Cl (single isomer, unassigned; (+)) [(+)-5-F]	Selectivity MAO-A/MAO-B (in vitro IC50)	24

Please find the next molecule below.
Lookup: Supply Selectivity MAO-A/MAO-B (in vitro IC50) value. Item: C#CCNC1CCc2c(F)cccc21.Cl (single isomer, unassigned; (+)) [(+)-4-F]
Found: 65

====

# IC50 per record follows
# Target or test system: MAO-B (Rattus norvegicus)
# Sequence (P19643 1-520): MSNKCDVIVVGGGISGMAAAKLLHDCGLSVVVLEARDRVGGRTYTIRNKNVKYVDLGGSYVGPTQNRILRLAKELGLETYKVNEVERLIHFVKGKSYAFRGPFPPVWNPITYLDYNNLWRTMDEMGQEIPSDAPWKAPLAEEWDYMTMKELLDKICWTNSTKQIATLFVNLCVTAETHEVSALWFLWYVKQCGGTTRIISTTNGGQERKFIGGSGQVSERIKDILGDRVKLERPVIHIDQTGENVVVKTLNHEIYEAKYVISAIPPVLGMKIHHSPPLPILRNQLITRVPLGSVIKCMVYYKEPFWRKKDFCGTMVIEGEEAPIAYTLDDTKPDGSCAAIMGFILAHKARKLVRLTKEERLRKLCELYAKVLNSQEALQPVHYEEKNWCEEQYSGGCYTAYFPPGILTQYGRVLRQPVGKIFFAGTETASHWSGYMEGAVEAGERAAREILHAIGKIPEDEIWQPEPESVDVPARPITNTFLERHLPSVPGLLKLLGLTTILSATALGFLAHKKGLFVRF
I only need the number, in nM, no unit after it.

# annotated cases, reported IC50 shown
Compound	IC50 / nM
C#CCNC1CCc2c(F)cccc21.Cl (stereo not drawn) [Example 4-F, hydrochloride]	5.8
C#CCNC1CCc2c(F)cc(F)cc21 (single isomer, unassigned; (+)) [(+)-4,6-Difluoro]	500
C#CCNC1CCc2ccc(F)cc21.Cl (single isomer, unassigned; (-)) [(-)-6-F, hydrochloride]	12000
C#CCNC1CCc2ccc(F)cc21.Cl (single isomer, unassigned; (+)) [(+)-6-F, hydrochloride]	0.22
C#CCNC1CCc2cc(F)ccc21.Cl (single isomer, unassigned; (+)) [(+)-5-F, hydrochloride]	5.7
C#CCNC1CCc2cc(F)ccc21.Cl (stereo not drawn) [Example 5-F, hydrochloride]	6
C#CCNC1CCc2ccc(Cl)cc21.Cl (stereo not drawn) [Example 6-Cl, hydrochloride]	7.7
C#CCNC1CCc2c(F)cccc21.Cl (single isomer, unassigned; (+)) [(+)-4-F, hydrochloride]	5.2

Turning to the following compound.
Lookup: # return recorded IC50 for input C#CCNC1CCc2ccc(F)cc21 (stereo not drawn) [Example 6-F, 6-Fluoro-1-propargylaminoindan]
Found: 6.2

====

Target chain: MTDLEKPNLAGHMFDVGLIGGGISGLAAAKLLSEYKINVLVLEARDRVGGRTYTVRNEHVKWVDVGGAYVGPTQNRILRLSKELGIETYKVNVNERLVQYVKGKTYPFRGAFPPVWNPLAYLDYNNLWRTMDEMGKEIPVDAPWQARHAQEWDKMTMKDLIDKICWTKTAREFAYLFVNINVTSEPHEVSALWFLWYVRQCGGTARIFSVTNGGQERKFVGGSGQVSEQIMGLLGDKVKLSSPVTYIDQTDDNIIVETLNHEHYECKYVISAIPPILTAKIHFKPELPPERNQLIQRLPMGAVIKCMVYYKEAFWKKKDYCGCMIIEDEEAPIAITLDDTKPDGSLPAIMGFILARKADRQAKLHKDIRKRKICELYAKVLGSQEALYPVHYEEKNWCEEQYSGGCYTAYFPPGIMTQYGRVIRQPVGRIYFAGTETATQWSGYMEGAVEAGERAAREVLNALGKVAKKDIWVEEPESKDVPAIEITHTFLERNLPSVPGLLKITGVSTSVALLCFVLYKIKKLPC
Below, each entry is listed alongside its reported log10 of IC50.
# values: log10(IC50), units nM

Some solved cases for reference:
Molecule	log10 of IC50
C#CCNC1CCc2c(F)cc(F)cc21 (single isomer, unassigned; (+)) [(+)-4,6-Difluoro]	2.90
C#CCNC1CCc2cc(F)ccc21.Cl (centres unmarked) [Example 5-F, hydrochloride]	2.85
C#CCNC1CCc2ccc(F)cc21 (centres unmarked)	3.60
C#CCNC1CCc2c(F)cccc21.Cl (centres unmarked) [Example 4-F, hydrochloride]	2.70

Lookup: Give the measured log10 of IC50 for C#CCNC1CCc2ccc(Cl)cc21.Cl (centres unmarked) [Example 6-Cl, hydrochloride]
Found: 3.84

====

Measured ED-50 LIVER MAO-B by item
# Test system: MAO-B
# Measurement protocol: Inhibition of MAO Activity Ex-vivo: Acute Treatment, liver, MAO-B
# Type: in vivo, rat (male Sprague-Dawley derived)
# Setup conditions: rat, ip or po, 2 hours after dosing, liver
// note: answer is a bare numeric in mg/kg

A selection of reference data follows.
Molecule	Val
C#CCNC1CCc2cc(F)ccc21.Cl (centres unmarked) [Example 5-F]	0.06
C#CCNC1CCc2cc(F)ccc21.Cl (single isomer, unassigned; (+)) [(+)-5-F]	0.07
C#CCNC1CCc2ccccc21 (centres unmarked) [H, N-propargyl-1-aminoindan, reference compound]	0.06
C#CCNC1CCc2c(F)cccc21.Cl (single isomer, unassigned; (+)) [(+)-4-F]	0.17

Lookup: State its ED-50 LIVER MAO-B for this molecule: C#CCNC1CCc2c(F)cccc21.Cl (centres unmarked) [Example 4-F]
Found: 0.13
